Numbers sourced from patent US20240239875A1.

# study-target: T1, HKU1 spike protein (HCoV-HKU1)
# T1 chain: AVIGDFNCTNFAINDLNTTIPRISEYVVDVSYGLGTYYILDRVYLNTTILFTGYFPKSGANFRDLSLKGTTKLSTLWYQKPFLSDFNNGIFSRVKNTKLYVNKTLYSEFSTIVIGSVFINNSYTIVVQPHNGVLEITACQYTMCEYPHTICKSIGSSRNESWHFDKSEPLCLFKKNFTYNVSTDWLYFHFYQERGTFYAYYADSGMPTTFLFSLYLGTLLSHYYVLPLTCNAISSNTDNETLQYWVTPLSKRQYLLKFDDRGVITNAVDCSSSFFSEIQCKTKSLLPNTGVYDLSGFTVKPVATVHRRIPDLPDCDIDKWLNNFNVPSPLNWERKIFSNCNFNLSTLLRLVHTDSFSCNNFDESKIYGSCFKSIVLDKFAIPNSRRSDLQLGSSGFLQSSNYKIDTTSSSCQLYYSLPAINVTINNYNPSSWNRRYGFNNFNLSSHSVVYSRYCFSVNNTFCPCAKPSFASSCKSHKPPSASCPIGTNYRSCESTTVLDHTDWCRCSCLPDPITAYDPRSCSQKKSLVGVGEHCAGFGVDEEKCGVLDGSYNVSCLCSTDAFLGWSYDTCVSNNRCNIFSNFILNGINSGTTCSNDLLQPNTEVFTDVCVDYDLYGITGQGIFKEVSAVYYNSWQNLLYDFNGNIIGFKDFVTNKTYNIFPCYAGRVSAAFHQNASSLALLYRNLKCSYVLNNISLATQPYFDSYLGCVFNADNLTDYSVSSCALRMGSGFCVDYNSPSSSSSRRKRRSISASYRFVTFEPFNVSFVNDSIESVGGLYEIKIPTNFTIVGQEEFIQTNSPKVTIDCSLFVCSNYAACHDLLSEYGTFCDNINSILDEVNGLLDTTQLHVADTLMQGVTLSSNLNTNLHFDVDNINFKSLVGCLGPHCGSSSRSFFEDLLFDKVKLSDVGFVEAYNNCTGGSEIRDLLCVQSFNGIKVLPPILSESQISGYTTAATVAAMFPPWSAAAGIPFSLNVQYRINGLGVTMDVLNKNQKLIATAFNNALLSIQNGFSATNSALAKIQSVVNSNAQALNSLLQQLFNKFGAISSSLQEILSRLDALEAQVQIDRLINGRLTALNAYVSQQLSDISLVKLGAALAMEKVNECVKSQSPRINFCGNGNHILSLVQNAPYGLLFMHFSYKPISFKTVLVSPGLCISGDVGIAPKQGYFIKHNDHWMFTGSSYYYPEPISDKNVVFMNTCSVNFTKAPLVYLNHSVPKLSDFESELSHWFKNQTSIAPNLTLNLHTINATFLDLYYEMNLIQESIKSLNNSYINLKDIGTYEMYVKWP
# test-protocol: ELISA
observation-type: EC50
Answer shape: numeric part, then the unit.

Here is how some binders turned out for EC50.
# binder, EC50
records = [
    ("7-D7-A (antibody, V domains shown) VH: QVQLKESGPGLVAPSQSLSITCTVSGFSLTSYAISWVRQPPGKGLEWLGVIWPGGGTNYNSALKSRLSISKDNSKSQVFLKMNSLQTDDTAKYYCARTGYYFDYWGQGTTLTVSS VL: QLILTQSPAIMSASPGEKVTMTCSASLSVNYMYWFQQKPGTSPKRWIHDTSKLASGVPARFSGSGSGTSYSLTISSMEAEDAATYYCQQWSSNPPMYTFGGGTKLEIK", "1.3 nM"),
    ("1-B11-A (antibody, V domains shown) VH: QVQLQQSGPELVKPGASVKISCKASGYTFTDHYINWVKQRPGQGLEWIGWIFPGSGSTYYNEQFKGKATLTVDKSSNTAYMLLSSLTSEDSAVYFCARSGGLRLGFAYWGQGTLVTVSA VL: DIQMTQTTSSLSASLGDRVTISCRASQDISNYLNWYQQKPDGTVKLLIYYTSRLHSGVPSRFSGSGSGTDYSLTISNLEQEDISTYFCQQVNTLPYTFGGGTKLEIK", "0.82 nM"),
    ("1-L10-A (antibody, V domains shown) VH: EVKLEESGGGLVQPGGSMKLSCVASGFTFNNYWMNWVRQSPEKGLEWVAQMRLKSDNYATHYAESVKGRFTISRDDSKSSVYLQMNNLRAEDTGIYYCIEGYWTYWGQGTLVTVSA VL: QIVLTQSPAIMSASLGERVTMTCTASSSVSSSYLHWYQQKPGSSPKLWIYSTSNLASGVPARFSGNGSGTSYSLTISSMEAEDAATYYCLQYHRSPPYTFGGGTKLEIK", "2.73 nM"),
]

Returns the measured EC50 for the input binder. Input: 9-F6-A (antibody, V domains shown) VH: EVQLQQSGPELVKPGASVKMSCKASGYTFTSYIMHWVKQKPGQGLEWIGYILPYNDGTKYNEKFKGKATLTSDKSSSTAYMELRSLTSEDSAVYYCARWGYSNFLDSWGQGTTLTVSS VL: DIQMTQTTSSLSASLGDRVTISCRASQDINNYLNWYQQKPDGTVKLLIYYTSRLHSGVPSRFSGSGSGTDYSLTIRNLEQEDIATYFCQQGNTLPPTFGGGTKLEIK
0.61 nM
